Entry source: patent US20260272979A1

Target: T1, PD-L2 fuse-expressed with an Fc derived from human IgG1 (human, UniProt Q9BQ51 20-219, limits assumed)
T1 construct: Bought reagent; also called hPD-L2-Fc; not shown: Fc of human IgG1
T1 sequence (looked up): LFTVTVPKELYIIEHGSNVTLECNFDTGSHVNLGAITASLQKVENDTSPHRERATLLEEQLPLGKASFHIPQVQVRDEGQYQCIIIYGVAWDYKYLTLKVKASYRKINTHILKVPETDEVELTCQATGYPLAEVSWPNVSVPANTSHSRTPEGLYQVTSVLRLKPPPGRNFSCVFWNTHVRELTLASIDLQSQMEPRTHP
Experiment: SPR Biacore T200

# BINDER, Kd
records = [
    ("Seq No. 5-RFc (PD-1 variant PD1_56#-15 fused to rabbit IgG Fc) (Fc fusion, Signal peptide 1-20 left out; also called variant 4; Mut4/56#-15; not shown: rabbit IgG Fc (RFc) of vector pcDNA3.4-RFc) PGWFLDSPDRPWNPPTFSPALLVVTEGDNATFTCSFSNTSESFVLNWYRMSPSNQTDKLAAFPEDFRNCTQDCRFRVTQLPNGRDFHMSVVRARRNDSGTYLCGAISLSTPVWIKESLRAELRVTERRAEVPTAH", "4.53 nM"),
    ("Seq No. 2-RFc (PD-1 variant PD1_56# fused to rabbit IgG Fc) (Fc fusion, Signal peptide 1-20 left out; also called variant 1; Mut1/56#; not shown: rabbit IgG Fc (RFc) of vector pcDNA3.4-RFc) PGWFLDSPDRPWNPPTFSPALLVVTEGDNATFTCSFSNTSESFVLNWYRMSPSNQTDKLAAFPEDRSQPGQDCRFRVTQLPNGRDFHMSVVRARRNDSGTYLCGAISLSTPVWIKESLRAELRVTERRAEVPTAH", "1.17 nM"),
    ("Seq No. 3-RFc (PD-1 variant PD1_56#-2 fused to rabbit IgG Fc) (Fc fusion, Signal peptide 1-20 left out; several higher bands in non-reducing SDS-PAGE; also called variant 2; Mut2/56#-2; not shown: rabbit IgG Fc (RFc) of vector pcDNA3.4-RFc) PGWFLDSPDRPWNPPTFSPALLVVTEGDNATFTCSFSNTSESFVLNWYRMSPSNQTDKLAAFPFLFNLPGQDCRFRVTQLPNGRDFHMSVVRARRNDSGTYLCGAISLSTPVWIKESLRAELRVTERRAEVPTAH", "0.00296 nM"),
    ("Seq No. 6-RFc (PD-1 variant PD1_56#-16 fused to rabbit IgG Fc) (Fc fusion, Signal peptide 1-20 left out; several higher bands in non-reducing SDS-PAGE; also called variant 5; PD1 variant 5 (56#-16); not shown: rabbit IgG Fc (RFc) of vector pcDNA3.4-RFc) PGWFLDSPDRPWNPPTFSPALLVVTEGDNATFTCSFSNTSESFVLNWYRMSPSNQTDKLAAFPEDFFTVSQDCRFRVTQLPNGRDFHMSVVRARRNDSGTYLCGAISLSTPVWIKESLRAELRVTERRAEVPTAH", "0.798 nM"),
    ("Seq No. 4-RFc (PD-1 variant PD1_56#-3 fused to rabbit IgG Fc) (Fc fusion, Signal peptide 1-20 left out; several higher bands in non-reducing SDS-PAGE; also called variant 3; Mut3/56#-3; not shown: rabbit IgG Fc (RFc) of vector pcDNA3.4-RFc) PGWFLDSPDRPWNPPTFSPALLVVTEGDNATFTCSFSNTSESFVLNWYRMSPSNQTDKLAAFPWMFCFPGQDCRFRVTQLPNGRDFHMSVVRARRNDSGTYLCGAISLSTPVWIKESLRAELRVTERRAEVPTAH", "296 nM"),
    ("Seq No. 7-RFc (PD-1 variant PD1_56#-108 fused to rabbit IgG Fc) (Fc fusion, Signal peptide 1-20 left out; also called variant 6; not shown: rabbit IgG Fc (RFc) of vector pcDNA3.4-RFc) PGWFLDSPDRPWNPPTFSPALLVVTEGDNATFTCSFSNTSESFVLNWYRMSPSNQTDKLAAFPEDRINRSQDCRFRVTQLPNGRDFHMSVVRARRNDSGTYLCGAISLSTPVWIKESLRAELRVTERRAEVPTAH", "0.336 nM"),
]
